# Test system: MS2 DNA fragment (MS2F and MS2R)
# assay summary: DNase I footprinting on MS2 DNA fragment
# Assay type: binding
# stated conditions: differential cleavage analysis

structure smiles: COC(=O)c1cc(NC(=O)c2cc(NC(=O)CCCOc3cc4c(cc3OC)C(=O)N3CCC[C@H]3C=N4)cn2C)cn1C
footprint at position G: footprinted

structure smiles: COC(=O)c1cc(NC(=O)c2cc(NC(=O)c3cc(NC(=O)c4cc(NC(=O)CCCOc5cc6c(cc5OC)C(=O)N5CCC[C@H]5C=N6)cn4C)cn3C)cn2C)cn1C
footprint at position G: footprinted

structure smiles: COC(=O)c1cc(NC(=O)c2cc(NC(=O)c3cc(NC(=O)c4cc(NC(=O)c5cc(NC(=O)CCCOc6cc7c(cc6OC)C(=O)N6CCC[C@H]6C=N7)cn5C)cn4C)cn3C)cn2C)cn1C
footprint at position G: footprinted

structure smiles: COC(=O)c1cc(NC(=O)CCCOc2cc3c(cc2OC)C(=O)N2CCC[C@H]2C=N3)cn1C
footprint at position G: footprinted
